Tested on: 252836-082-R-J2-PDC tumor spheroids, viability
ASSAY REMARKS: Anticancer human tumor 252836-082-R-J2-PDC patient-derived head and neck squamous cell carcinoma cell line growth inhibition [PI3K]
TEST PARAMETERS: second compound 0.0316 µM; first compound 0.0316 µM; stronger effect = lower value; spheroids with HUVEC and MSC
Entries and their viability, T/C values follow.
Please respond with the number in % and leave the unit unwritten.

# COMPOUND, TARGET SYSTEM, UOM, viability, T/C
rows = [
    ("C#Cc1c(F)ccc2cc(O)cc(-c3ncc4c(N5CC6CCC(C5)N6)nc(OCC56CCCN5CC(F)C6)nc4c3F)c12 (configuration not stated) + COc1c(OCCCN2CCOCC2)ccc2c3n(c(=NC(=O)c4cnc(N)nc4)nc12)CCN3", "252836-082-R-J2-PDC tumor spheroids, viability", "%", 53.5),
]

As a next step, examine the compound that follows.
Can you look up the measured viability, T/C of CC1(C)CCC(CN2CCN(c3ccc(C(=O)NS(=O)(=O)c4ccc(NCC5CCOCC5)c([N+](=O)[O-])c4)c(Oc4cnc5[nH]ccc5c4)c3)CC2)=C(c2ccc(Cl)cc2)C1 + COc1c(OCCCN2CCOCC2)ccc2c3n(c(=NC(=O)c4cnc(N)nc4)nc12)CCN3 for me? 59.2

###

System: 252836-082-R-J2-PDC tumor spheroids, viability
ASSAY REMARKS: Anticancer human tumor 252836-082-R-J2-PDC cell line growth inhibition [PI3K];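 also: spheroids exposed to agents for seven days before readout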;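 as to viability, T/C: percent of vehicle DMSO control viability so 100% = untreated growth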
TEST PARAMETERS: second compound 0.316 µM; first compound 0.0316 µM; stronger effect = lower value; spheroids with HUVEC and MSC
PARAMETER: viability, T/C (%)
Please respond with the number in % and leave the unit unwritten.

# COMPOUND, UOM, viability, T/C
records = [
    ("CC(=O)c1c(C)c2cnc(Nc3ccc(N4CCNCC4)cn3)nc2n(C2CCCC2)c1=O + CC(Nc1ncnc2nc[nH]c12)c1cc2cccc(Cl)c2c(=O)n1-c1ccccc1", "%", 88.7),
    ("CC1(C)CCC(CN2CCN(c3ccc(C(=O)NS(=O)(=O)c4ccc(NCC5CCOCC5)c([N+](=O)[O-])c4)c(Oc4cnc5[nH]ccc5c4)c3)CC2)=C(c2ccc(Cl)cc2)C1 + COc1c(OCCCN2CCOCC2)ccc2c3n(c(=NC(=O)c4cnc(N)nc4)nc12)CCN3", "%", 17.2),
    ("Cn1nccc1Nc1nccc(-c2ccn(C(CO)c3ccc(Cl)c(F)c3)c(=O)c2)n1 (stereo not given) + CC(Nc1ccc2c(c1)OCCn1cc(N3C(=O)OCC3C(F)F)nc1-2)C(N)=O", "%", 49.5),
    ("C=CC(=O)N1CCN(c2nc(=O)n(-c3c(C)ccnc3C(C)C)c3nc(-c4c(O)cccc4F)c(F)cc23)C(C)C1 (stereo not given) + COc1c(OCCCN2CCOCC2)ccc2c3n(c(=NC(=O)c4cnc(N)nc4)nc12)CCN3", "%", 19.2),
    ("CC1(C)CCC(CN2CCN(c3ccc(C(=O)NS(=O)(=O)c4ccc(NCC5CCOCC5)c([N+](=O)[O-])c4)c(Oc4cnc5[nH]ccc5c4)c3)CC2)=C(c2ccc(Cl)cc2)C1 + CC(Nc1ccc2c(c1)OCCn1cc(N3C(=O)OCC3C(F)F)nc1-2)C(N)=O", "%", 70.8),
    ("C#Cc1c(F)ccc2cc(O)cc(-c3ncc4c(N5CC6CCC(C5)N6)nc(OCC56CCCN5CC(F)C6)nc4c3F)c12 (stereo not given) + Cc1nc(NC(=O)N2CCCC2C(N)=O)sc1-c1ccnc(C(C)(C)C(F)(F)F)c1", "%", 70.2),
    ("CNC(=O)c1ccc(N2C(=S)N(c3ccc(C#N)c(C(F)(F)F)c3)C(=O)C2(C)C)cc1F + COc1c(OCCCN2CCOCC2)ccc2c3n(c(=NC(=O)c4cnc(N)nc4)nc12)CCN3", "%", 19),
    ("CC1(C)CCC(Nc2ncc(C(F)(F)F)c(-c3c[nH]c4c(P(C)(C)=O)c(C#N)ccc34)n2)CN1 (stereo not given) + CC(Nc1ncnc2nc[nH]c12)c1cc2cccc(Cl)c2c(=O)n1-c1ccccc1", "%", 32.4),
    ("Cn1ncc(Cl)c1-c1cc(C(=O)NC(CN)Cc2cccc(F)c2)sc1Cl (stereo not given) + COc1c(OCCCN2CCOCC2)ccc2c3n(c(=NC(=O)c4cnc(N)nc4)nc12)CCN3", "%", 21.1),
]

As a next step, examine the compound that follows.
Can you look up the measured viability, T/C of CC1(C)CCC(Nc2ncc(C(F)(F)F)c(-c3c[nH]c4c(P(C)(C)=O)c(C#N)ccc34)n2)CN1 (stereo not given) + CC(Nc1ccc2c(c1)OCCn1cc(N3C(=O)OCC3C(F)F)nc1-2)C(N)=O for me? 20.6

###

Test system: 252836-082-R-J2-PDC tumor spheroids, viability
ASSAY REMARKS: Anticancer human tumor 252836-082-R-J2-PDC cell line growth inhibition [PI3K];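 also: spheroids exposed to agents for seven days before readout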
TEST PARAMETERS: curve of first compound; second compound 0.1 µM; spheroids with HUVEC and MSC
PARAMETER: IC50

# COMPOUND, REPORTED VALUE
records = [
    ("Cn1ncnc1[C@H]1c2n[nH]c(=O)c3cc(F)cc(c23)N[C@@H]1c1ccc(F)cc1 + CC(Nc1ncnc2nc[nH]c12)c1cc2cccc(Cl)c2c(=O)n1-c1ccccc1", "> 100 nM"),
]

Can you look up the measured IC50 of CCN1CCN(Cc2ccc(Nc3ncc(F)c(-c4cc(F)c5nc(C)n(C(C)C)c5c4)n3)nc2)CC1 + Cc1nc(NC(=O)N2CCCC2C(N)=O)sc1-c1ccnc(C(C)(C)C(F)(F)F)c1 for me? > 1000 nM

What do you get for CC(=O)c1c(C)c2cnc(Nc3ccc(N4CCNCC4)cn3)nc2n(C2CCCC2)c1=O + CC(Nc1ccc2c(c1)OCCn1cc(N3C(=O)OCC3C(F)F)nc1-2)C(N)=O ? > 100 nM

What do you get for C#Cc1c(F)ccc2cc(O)cc(-c3ncc4c(N5CC6CCC(C5)N6)nc(OCC56CCCN5CC(F)C6)nc4c3F)c12 (centres undefined) + COc1c(OCCCN2CCOCC2)ccc2c3n(c(=NC(=O)c4cnc(N)nc4)nc12)CCN3 ? < 31.6 nM

What do you get for CCCS(=O)(=O)Nc1ccc(F)c(C(=O)c2c[nH]c3ncc(-c4ccc(Cl)cc4)cc23)c1F + COc1c(OCCCN2CCOCC2)ccc2c3n(c(=NC(=O)c4cnc(N)nc4)nc12)CCN3 ? < 31.6 nM

What do you get for CC1(C)CCC(Nc2ncc(C(F)(F)F)c(-c3c[nH]c4c(P(C)(C)=O)c(C#N)ccc34)n2)CN1 (centres undefined) + Cc1nc(NC(=O)N2CCCC2C(N)=O)sc1-c1ccnc(C(C)(C)C(F)(F)F)c1 ? < 31.6 nM

###

Tested on: 252836-082-R-J2-PDC tumor spheroids, viability
ASSAY REMARKS: Anticancer human tumor 252836-082-R-J2-PDC cell line growth inhibition [PI3K];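 also: spheroids exposed to agents for seven days before readout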;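 as to viability, T/C: percent of vehicle DMSO control viability so 100% = untreated growth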
TEST PARAMETERS: second compound 0.00316 µM; first compound 0.001 µM; stronger effect = lower value; spheroids with HUVEC and MSC
PARAMETER: viability, T/C (%)
Please respond with the number in % and leave the unit unwritten.

# COMPOUND, UOM, REPORTED VALUE
data = [
    ("CC(=O)c1c(C)c2cnc(Nc3ccc(N4CCNCC4)cn3)nc2n(C2CCCC2)c1=O + COc1c(OCCCN2CCOCC2)ccc2c3n(c(=NC(=O)c4cnc(N)nc4)nc12)CCN3", "%", 93.1),
    ("CC(C)n1nc(-c2ccc3oc(N)nc3c2)c2c(N)ncnc21 + CC(Nc1ccc2c(c1)OCCn1cc(N3C(=O)OCC3C(F)F)nc1-2)C(N)=O", "%", 81.8),
]

As a next step, examine the compound that follows.
Can you look up the measured viability, T/C of CC(=O)c1c(C)c2cnc(Nc3ccc(N4CCNCC4)cn3)nc2n(C2CCCC2)c1=O + CC(Nc1ccc2c(c1)OCCn1cc(N3C(=O)OCC3C(F)F)nc1-2)C(N)=O for me? 91.6

###

Entries and their viability, T/C values follow.
Tested on: 252836-082-R-J2-PDC tumor spheroids, viability
ASSAY REMARKS: Anticancer human tumor 252836-082-R-J2-PDC cell line growth inhibition [PI3K];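 also: spheroids exposed to agents for seven days before readout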;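 as to viability, T/C: percent of vehicle DMSO control viability so 100% = untreated growth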
TEST PARAMETERS: compound 0.01 µM; stronger effect = lower value; spheroids with HUVEC and MSC

# COMPOUND, PARAMETER, REPORTED VALUE
records = [
    ("CC(=O)c1c(C)c2cnc(Nc3ccc(N4CCNCC4)cn3)nc2n(C2CCCC2)c1=O", "viability, T/C", "97.5% [middle of 4 runs]"),
    ("Cn1ncnc1[C@H]1c2n[nH]c(=O)c3cc(F)cc(c23)N[C@@H]1c1ccc(F)cc1", "viability, T/C", "93.7% [middle of 4 runs]"),
    ("COc1c(OCCCN2CCOCC2)ccc2c3n(c(=NC(=O)c4cnc(N)nc4)nc12)CCN3", "viability, T/C", "80.7% [middle of 8 runs]"),
    ("CC(Nc1ccc2c(c1)OCCn1cc(N3C(=O)OCC3C(F)F)nc1-2)C(N)=O (stereo unspecified)", "viability, T/C", "96.8% [middle of 8 runs]"),
    ("CCN1CCN(Cc2ccc(Nc3ncc(F)c(-c4cc(F)c5nc(C)n(C(C)C)c5c4)n3)nc2)CC1", "viability, T/C", "91.3% [middle of 4 runs]"),
]

As a next step, examine the compound that follows.
Can you look up the measured viability, T/C of `CC(C)n1nc(-c2ccc3oc(N)nc3c2)c2c(N)ncnc21` for me? 80.9% [middle of 4 runs]
